# target of assay: T1, human CD71 extracellular domain (human, UniProt P02786 89-760, biotinylated)
# T1 construct: also called hCD71; CD71-ECD
# T1 sequence (P02786 89-760): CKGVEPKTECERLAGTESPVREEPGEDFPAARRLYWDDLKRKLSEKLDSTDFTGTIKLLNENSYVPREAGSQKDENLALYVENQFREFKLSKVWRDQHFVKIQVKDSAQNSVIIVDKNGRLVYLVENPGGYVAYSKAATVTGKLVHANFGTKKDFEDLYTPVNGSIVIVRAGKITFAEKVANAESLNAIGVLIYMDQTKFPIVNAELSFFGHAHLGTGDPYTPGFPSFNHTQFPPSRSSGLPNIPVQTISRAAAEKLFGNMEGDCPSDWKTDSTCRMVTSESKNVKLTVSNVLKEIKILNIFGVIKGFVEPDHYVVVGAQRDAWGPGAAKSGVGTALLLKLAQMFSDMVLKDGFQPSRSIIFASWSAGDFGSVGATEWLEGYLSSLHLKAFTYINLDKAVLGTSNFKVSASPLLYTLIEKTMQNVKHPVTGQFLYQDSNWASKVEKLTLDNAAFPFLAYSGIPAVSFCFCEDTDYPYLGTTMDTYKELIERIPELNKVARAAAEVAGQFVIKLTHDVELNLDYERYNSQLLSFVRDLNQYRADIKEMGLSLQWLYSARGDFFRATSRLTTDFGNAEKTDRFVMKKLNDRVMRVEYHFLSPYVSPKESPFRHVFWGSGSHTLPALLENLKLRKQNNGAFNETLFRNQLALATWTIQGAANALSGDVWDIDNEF
# protocol notes: primary ELISA, RLU over HSA
reported metric: hCD71:HSA

Sample records with hCD71:HSA:
binder	reported metric	test value
CD71-binding FN3 domain of SEQ ID NO: 454 (designed binder) MLPAPKNLVVSRVTEDSARLSWTAPDAAFDSFFIGYLEPQPPGEAINLTVPGSERSYDLTGLKPGTEYNVTIQGVKGGFPSYPLQASFTT	hCD71:HSA	226
CD71-binding FN3 domain of SEQ ID NO: 471 (designed binder) MLPAPKNLVVSRVTEDSARLSWTAPDAAFDSFTIWYYESPTGGEAIVLTVPGSERSYDLTGLKPGTEYMVFIQGVKGGCFSTPLYAIFTT	hCD71:HSA	42
CD71-binding FN3 domain of SEQ ID NO: 513 (designed binder) MLPAPKNLVVSRVTEDSARLSWTAPDAAFDSFFIGYLEPQPPGEAISLYVPGSERSYDLTGLKPGTEYNVTIQGVKGGFPSLPLAAQFTT	hCD71:HSA	186
CD71-binding FN3 domain of SEQ ID NO: 533 (designed binder) MLPAPKNLVVSRVTEDSARLSWTAPDAAFDSFFIGYLEPQPPGEAINLFVPGSERSYDLTGLKPGTEYNVTIQGVKGGFPSMPLSAIFTT	hCD71:HSA	146
CD71-binding FN3 domain of SEQ ID NO: 464 (designed binder) MLPAPKNLVVSRVTEDSARLSWTAPDAAFDSFFIGYLEPQPPGEAIQLFVPGSERSYDLTGLKPGTEYNVTIQGVKGGFPSTPLVASFTT	hCD71:HSA	140
CD71-binding FN3 domain of SEQ ID NO: 463 (designed binder) MLPAPKNLVVSRVTEDSARLSWTAPDAAFDSFLILYIEQDHRGEAIVLTVPGSERSYDLTGLKPGTEYWVHITGVKGGYYSAPLSAIFTT	hCD71:HSA	91
CD71-binding FN3 domain of SEQ ID NO: 487 (designed binder) MLPAPKNLVVSRVTEDSARLSWTAPDAAFDSFFIGYLEPQPPGEAIGLRVPGSERSYDLTGLKPGTEYNVTIQGVKGGFPSEPLIADFTT	hCD71:HSA	146
CD71-binding FN3 domain of SEQ ID NO: 493 (designed binder) MLPAPKNLVVSRVTEDSARLSWTAPDAAFDSFFIGYLEPQPPGEAILLAVPGSERSYDLTGLKPGTEYNVTIQGVKGGFPSLPLVAHFTT	hCD71:HSA	190

1: CD71-binding FN3 domain of SEQ ID NO: 457 (designed binder) MLPAPKNLVVSRVTEDSARLSWTAPDAAFDSFFIGYLEPQPPGEAIVLLVPGSERSYDLTGLKPGTEYNVTIQGVKGGFPSAPLVATFTT
2: CD71-binding FN3 domain of SEQ ID NO: 521 (designed binder) MLPAPKNLVVSRVTEDSARLSWTAPDAAFDSFFIGYLEPQPPGEAIVLWVPGSERSYDLTGLKPGTEYNVTIQGVKGGFPSHPLVAHFTT
Given 1 and given 2 , which shows the smaller recorded hCD71:HSA? Answer format: the label of the selected item.
1

A: CD71-binding FN3 domain of SEQ ID NO: 524 (designed binder) MLPAPKNLVVSRVTEDSARLSWTAPDAAFDSFFIGYLEPQPPGEAIHLWVPGSERSYDLTGLKPGTEYNVTIQGVKGGFPSMPLSAIFTT
B: CD71-binding FN3 domain of SEQ ID NO: 473 (designed binder) MLPAPKNLVVSRVTEDSARLSWTAPDAAFDSFFIGYLEPQPPGEAIDLWVPGSERSYDLTGLKPGTEYNVTIQGVKGGFPSLPLSASFTT
C: CD71-binding FN3 domain of SEQ ID NO: 537 (designed binder) MLPAPKNLVVSRVTEDSARLSWTAPDAAFDSFEIGYFENLYLGEAIVLTVPGSERSYDLTGLKPGTEYWVQIGGVKGGNWSAPLSAIFTT
D: CD71-binding FN3 domain of SEQ ID NO: 545 (designed binder) MLPAPKNLVVSRVTEDSARLSWTAPDAAFDSFFIGYLEPQPPGEAISLVVPGSERSYDLTGLKPGTEYNVTIQGVKGGFPSNPLIATFTT
Sort (4 binders) by hCD71:HSA: min first. In plain terms: list the labels in the order you were asked to.
C, B, A, D
(C: 23, B: 88, A: 190, D: 327)

P: CD71-binding FN3 domain of SEQ ID NO: 504 (designed binder) MLPAPKNLVVSRVTEDSARLSWTAPDAAFDSFFIGYLEPQPPGEAIGLVVPGSERSYDLTGLKPGTEYNVTIQGVKGGFPSHPLGAIFTT
Q: CD71-binding FN3 domain of SEQ ID NO: 506 (designed binder) MLPAPKNLVVSRVTEDSARLSWTAPDAAFDSFEIGYWENAYKGEAIVLTVPGSERSYDLTGLKPGTEYVVFIGGVKGGVWSVPLSAISTT
R: CD71-binding FN3 domain of SEQ ID NO: 503 (designed binder) MLPAPKNLVVSRVTEDSARLSWTAPDAAFDSFEISYFETSWHGEAIVLTVLGSERSYDLTGLKPGTEYRVYIGGVKGGSWSQPLSAIFTT
# sort list by recorded hCD71:HSA, greatest to least In plain terms: list the labels in the order you were asked to.
R, P, Q
(R: 150, P: 78, Q: 39)

Origin of measurements: patent US20260151494A1
